Taken from patent US11986471B2.

The entries below are paired with their reported pIC50.
molecular target: PRMT5 (Homo sapiens, UniProt O14744); construct: purchased Viva (custom protein); experiment: PRMT5 IC50 assay with no cofactor; format: biochemical; details: read-out: No Co-factor IC50
Sequence (O14744 whole entry): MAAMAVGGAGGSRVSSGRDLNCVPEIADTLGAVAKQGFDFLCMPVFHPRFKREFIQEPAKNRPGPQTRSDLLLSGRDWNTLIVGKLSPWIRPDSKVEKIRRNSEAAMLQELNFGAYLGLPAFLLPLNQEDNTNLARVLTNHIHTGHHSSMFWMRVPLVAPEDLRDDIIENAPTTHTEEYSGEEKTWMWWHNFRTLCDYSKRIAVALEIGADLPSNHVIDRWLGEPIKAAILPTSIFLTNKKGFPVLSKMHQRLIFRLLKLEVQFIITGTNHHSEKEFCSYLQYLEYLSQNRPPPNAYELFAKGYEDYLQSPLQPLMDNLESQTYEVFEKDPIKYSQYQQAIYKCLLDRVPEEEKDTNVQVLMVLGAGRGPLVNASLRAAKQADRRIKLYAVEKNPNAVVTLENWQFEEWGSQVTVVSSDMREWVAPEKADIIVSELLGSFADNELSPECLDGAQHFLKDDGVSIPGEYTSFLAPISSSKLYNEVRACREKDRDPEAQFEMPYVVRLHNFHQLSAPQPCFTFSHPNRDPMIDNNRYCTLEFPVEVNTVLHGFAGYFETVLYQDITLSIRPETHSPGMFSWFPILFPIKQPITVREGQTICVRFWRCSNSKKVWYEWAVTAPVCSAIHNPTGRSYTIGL
Sequence (Q9BQA1 whole entry partner): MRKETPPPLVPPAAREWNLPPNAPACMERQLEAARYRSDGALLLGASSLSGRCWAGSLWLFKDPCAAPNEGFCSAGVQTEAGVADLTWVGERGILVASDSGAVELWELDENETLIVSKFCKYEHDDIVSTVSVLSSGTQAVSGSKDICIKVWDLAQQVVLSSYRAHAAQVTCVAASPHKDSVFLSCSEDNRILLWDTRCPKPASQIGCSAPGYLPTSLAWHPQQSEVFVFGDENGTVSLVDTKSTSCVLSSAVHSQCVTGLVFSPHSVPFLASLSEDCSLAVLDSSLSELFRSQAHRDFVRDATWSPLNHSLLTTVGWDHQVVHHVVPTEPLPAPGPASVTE
pIC50: −log10 of the molar value.

Prompt: Can you look up the measured pIC50 of O=C(NC[C@H](O)CN1CCc2nc(OCc3cnco3)ccc2C1)c1ccnc(NC2CCC2)c1 for me?
Completion: ≤ 5.30

Prompt: Try this molecule next: COCCN(C)c1nc(NC2COC2)cc(C(=O)NC[C@H](O)CN2CCc3cc(OCc4ocnc4C)ccc3C2)n1
Completion: 5.30 to 6.30

Prompt: Now give it for CC(=O)N1CCC(Nc2cc(C(=O)NC[C@H](O)CN3CCc4c(ccc(OCc5cnco5)c4C)C3)ncn2)CC1 too.
Completion: ≤ 5.30
